Source of measurements: the MegaScale stability set (Tsuboyama et al. 2023)

B1: 2K2A (parent)
chain: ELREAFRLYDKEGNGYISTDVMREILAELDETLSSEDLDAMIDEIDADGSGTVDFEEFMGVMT

variants of: B1; assay: folding stability dG (cDNA display proteolysis); higher = more stable; conditions: PBS, room temperature
metricName: folding stability dG (kcal/mol)
Just the number in kcal/mol, nothing appended.

L29I: 1.64

The recorded folding stability dG for entry `D37L` equals 1.59

The recorded folding stability dG for entry `A27V` equals 1.59

The recorded folding stability dG for entry `E12K` equals 1.13

The recorded folding stability dG for entry `N14V` equals 2.07

The recorded folding stability dG for entry `D48A` equals 1.48

The recorded folding stability dG for entry `E1V` equals 1.98

The recorded folding stability dG for entry `E36K` equals 1.81

The recorded folding stability dG for entry `S18F` equals 1.15

The recorded folding stability dG for entry `F55G` equals -0.263
